experiment: Dynamic light scattering of LNPs: Z-average diameter, number average diameter, PDI; type: physicochemical; conditions: LNP, sg:mRNA 1:1, N/P about 6, 50/9/38/3; Table 2, Experiments 2-20
reported-property: Z-avg (nm)
Form entry: value (nm) — number only.

CCCCC/C=C\C/C=C\CCCCCCCC(=O)OCC(C)(COC(=O)CCC(OCCCCCCCC)OCCCCCCCC)COC(=O)OCCCN(CC)CC (stereo not drawn) [Compound 96] yielded Z-avg (nm) of 81.55

Measured Z-avg (nm), CCCCCC/C=C\COC(=O)CCCC(=O)OCC(COC(=O)CCC(OCCCCCCCC)OCCCCCCCC)COC(=O)OCCCN(CC)CC (stereo not drawn) [Compound 56] : 105.2

Value of measured Z-avg (nm) for the entry CCCCC/C=C\C/C=C\CCCCCCCC(=O)OCC(COC(=O)CCCC(CCCCCCC)CCCCCCC)COC(=O)OCCCN(CC)CC (stereo not drawn) [Compound 67] : 69.85

Noted for CCCCC/C=C\C/C=C\CCCCCCCC(=O)OCC(COC(=O)OCCCN(CC)CC)COC(=O)C(CCCCCC)CCCCCCCC (stereo not drawn) [Compound 65] : its Z-avg (nm) reads 70.19

Z-avg (nm) reported for this compound CCCCC/C=C\C/C=C\CCCCCCCC(=O)OCC(COC(=O)CCCC(=O)OC(CCCCCCCC)CCCCCCCC)COC(=O)OCCCN(CC)CC (stereo not drawn) [Compound 63] : 79.37

The compound listed as CCCCC/C=C\C/C=C\CCCCCCCC(=O)OCC(COC(=O)CCC(OCCCCCCCC)OCCCCCCCC)COC(=O)NCCCN1CCCC1 (stereo not drawn) [Compound 8] has a reported Z-avg (nm) of 53.88

----------
tested on: Transthyretin (TTR); experiment: Serum TTR ELISA in mice after LNP dosing; type: in vivo, CD-1 female mice; conditions: mouse serum, guide G502, i.v. 0.1 mg/kg
Label rule, in plain words: Serum TTR of 700 µg/mL and up is Satisfied, under 700 µg/mL is Not satisfied.

Hello, I need to know if CCCCCCCCCCCCCCCCCC(=O)OCC(COC(=O)CCC(OCCCCCCCC)OCCCCCCCC)COC(=O)OCCCN(CC)CC (stereo not shown) has measured Serum TTR not below 700 µg/mL. Thanks!
Satisfied

Exam item: decide whether the reported Serum TTR for CCCCC/C=C\C/C=C\CCCCCCCC(=O)OCC(COC(=O)CCC(OCCCCCCCC)OCCCCCCCC)COC(=O)NCCN1CCCCCC1 (stereo not shown) is at least 700 µg/mL.
Satisfied

Check the entry CC/C=C\C/C=C\C/C=C\CCCCCCCC(=O)OCC(COC(=O)CCC(OCCCCCCCC)OCCCCCCCC)COC(=O)OCCCN(CC)CC (stereo not shown) : does Serum TTR equal or exceed 700 µg/mL?
Not satisfied

Hi, just wondering whether CCCCC/C=C\C/C=C\CCCCCCCC(=O)OCC(COC(=O)CCC(OCCCCCCCC)OCCCCCCCC)COC(=O)NCCN1CCCCC1 (stereo not shown) shows Serum TTR of 700 µg/mL or higher.
Not satisfied

Please indicate if the recorded Serum TTR for CCCCC/C=C\C/C=C\CCCCCCCC(=O)OCC(COC(=O)CCC(OCCCCCCCC)OCCCCCCCC)COC(=O)NCCN1CCCC1 (stereo not shown) meets or exceeds 700 µg/mL.
Satisfied

Does the molecule CCCCC/C=C\C/C=C\CCCCCCCC(=O)OCC(COC(=O)CCC(OCCCCCCCC)OCCCCCCCC)COC(=O)OCCCN1CCCCC1 (stereo not shown) have recorded Serum TTR that is 700 µg/mL or more?
Satisfied

Form field: Serum TTR at least 700 µg/mL? Entry: CCCCCCCC/C=C\CCCCCCCC(=O)OCC(COC(=O)CCC(OCCCCCCCC)OCCCCCCCC)COC(=O)OCCCN(CC)CC (stereo not shown)
Satisfied

----------
Assay: pKa measurement of unformulated amine lipid (fluorescence, method of Jayaraman et al.)
Format: physicochemical
Details: 100 μM in 0.1 M phosphate buffer, pH 2.0-12.0
Description: The pKa of each amine lipid was determined according to the method in Jayaraman, et al. (Angewandte Chemie, 2012) with the following adaptations. […] Lipid was diluted to 100 μM in 0.1 M phosphate buffer (Boston Bioproducts) where the pH ranged from 2.0-12.0. Fluorescence intensity was measured using excitation and emission wavelengths of 321 nm and 448 nm.
Assignment: determine reported pKa for the given compounds.
Could you respond with only the numeric value?

GET /value?item= CCCCC/C=C\C/C=C\CCCCCCCC(=O)OCC(COC(=O)CCC(OCCCCCCCC)OCCCCCCCC)COC(=O)NCCN(C)C (stereo not drawn) [Compound 34] &field=pKa returns 7.84

// CCCCC/C=C\C/C=C\CCCCCCCC(=O)OCC(COC(=O)CCCC(CCCCCCC)CCCCCCC)COC(=O)OCCCN(CC)CC (stereo not drawn) [Compound 67] : pKa value = 6.19

Recorded result, CCCCCCCCCCOC(=O)CCCCCCCC(=O)OCC(COC(=O)CCCC(=O)OC(CCCCCCCC)CCCCCCCC)COC(=O)NCCN(CC)CC (stereo not drawn) [Compound 88] , pKa: 6.84

What the record says about CCCCC/C=C\C/C=C\CCCCCCCC(=O)OCC(COC(=O)CC12CC3CC(CC(C3)C1)C2)COC(=O)OCCCN(CC)CC (stereo not drawn) [Compound 107] : pKa is 6.43

Lab note: measured pKa of CCCCCCCCOC(CCC(=O)OCC(COC(=O)CCCCCCCCCCC(=O)OCCCCC)COC(=O)OCCCN(CC)CC)OCCCCCCCC (stereo not drawn) [Compound 60] was 6.38

Lookup result for CCCCCCCCCC(CC)OC(=O)CCCCCCCC(=O)OCC(COC(=O)CCC(OCCCCCCCC)OCCCCCCCC)COC(=O)OCCCN(CC)CC (stereo not drawn) [Compound 95] ; measured pKa: 6.14

----------
Task for the reader: assign each of the following compounds its reported PDI.
Experiment: Dynamic light scattering of LNPs: Z-average diameter, number average diameter, PDI
Type: physicochemical
Conditions: LNP, sg:mRNA 1:1, N/P about 6, 50/9/38/3; Table 2, Experiments 2-20
Excerpt: Dynamic Light Scattering (“DLS”) is used to characterize the polydispersity index (“PDI”) and size of the LNPs of the present disclosure. DLS measures the scattering of light that results from subjecting a sample to a light source. PDI, as determined from DLS measurements, represents the distribution of particle size (around the mean particle size) in a population, with a perfectly uniform population having a PDI of zero. […]
When you answer, write just the number.

Measured PDI of CCCCCC/C=C\COC(=O)CCCCCCCC(=O)OCC(COC(=O)CCCCCC(=O)OC(CCCCCCCC)CCCCCCCC)COC(=O)OCCCN(CC)CC (stereo not shown) [Compound 85] : 0.006

Quick note, PDI for CCCCC/C=C\C/C=C\CCCCCCCC(=O)OCC(COC(=O)CCC(OCCCCCCCC)OCCCCCCCC)COC(=O)OCCCCN1CCCC1 (stereo not shown) [Compound 13] landed at 0.013

The compound CCCCC/C=C\C/C=C\CCCCCCCC(=O)OCC(COC(=O)CCC(OCCCCCCCC)OCCCCCCCC)COC(=O)OCC1CCCN1C (stereo not shown) [Compound 14] showed PDI equal to 0.091

The compound listed as CCCCC/C=C\C/C=C\CCCCCCCC(=O)OCC(COC(=O)CCCCCC(CCCCCC)CCCCCC)COC(=O)OCCCN(CC)CC (stereo not shown) [Compound 68] shows PDI equal to 0.008

----------
assay: RNA encapsulation efficiency of LNPs (Ribogreen fluorescence assay); assay type: physicochemical; conditions: LNP, sg:mRNA 1:1, N/P about 6, amine lipid/DSPC/cholesterol/PEG-2k-DMG 50/9/38/3; Table 2, Experiments 2-20
Provide the reported Encapsulation (%) of each item.

Encapsulation (%) reading for CCCCC/C=C\C/C=C\CCCCCCCC(=O)OCC(COC(=O)CCC(OCCCCCCCC)OCCCCCCCC)COC(=O)OCCC(C)N(C)C (stereo not shown) : 98%

# Encapsulation (%) of CCCCC/C=C\C/C=C\CCCCCCCC(=O)OCC(COC(=O)CCCCC(OCCCCCCCC)OCCCCCCCC)COC(=O)OCCCN(CC)CC (stereo not shown) = 98%

For this molecule ( CCCCCC/C=C\COC(=O)CCCCCCCC(=O)OCC(COC(=O)CCC(OCCCCCCCCC)OCCCCCCCCC)COC(=O)OCCCN(CC)CC (stereo not shown) ), measured Encapsulation (%) is 99%

Given item CCCCC/C=C\C/C=C\CCCCCCCC(=O)OCC(COC(=O)CCC(OCCCCCCCC)OCCCCCCCC)COC(=O)NCCN(CC)CC (stereo not shown) , the value recorded as its Encapsulation (%) is 83%

Encapsulation (%) recorded for this molecule, CCCCCCCCCCOC(=O)CCCCCCCC(=O)OCC(COC(=O)CCCC(=O)OC(CCCCCCCC)CCCCCCCC)COC(=O)OCCC1CCCN1C (stereo not shown) , is 98%

Field Encapsulation (%) (entry CCCCC/C=C\C/C=C\CCCCCCCC(=O)OCC(C)(COC(=O)CCC(OCCCCCCCC)OCCCCCCCC)COC(=O)OCCCN(CC)CC (stereo not shown) ) reads 98%

The reported Encapsulation (%) of the molecule CCCCC/C=C\C/C=C\CCCCCCCC(=O)OCC(COC(=O)CCC(OCCCCCCCC)OCCCCCCCC)COC(=O)NC(C)CN(C)C (stereo not shown) was 98%
